Test system: Haemophilus influenzae
Assay: Antibacterial activity against Haemophilus influenzae 2 after 20 hrs by agar dilution method
Format: functional
Conditions: Haemophilus influenzae, 2, 20 h
Listing of recorded MIC by entry.

| QUERY SMILES | MIC, µg/mL |
| --- | --- |
| CCNC(=O)O[C@H]1[C@H](C)O[C@@H](O[C@H]2[C@H](N(C)C)[C@@H](O)[C@H](O[C@H]3[C@@H](CC=O)C[C@@H](C)[C@@H](O)CN(C)CCC[C@H](C/C=C/c4cncc5ccccc45)OC(=O)C[C@@H](O)[C@@H]3OC)O[C@@H]2C)C[C@@]1(C)OC(=O)CC | 4 |
| CCNC(=O)O[C@H]1[C@H](C)O[C@@H](O[C@H]2[C@H](N(C)C)[C@@H](O)[C@H](O[C@H]3[C@@H](CC=O)C[C@@H](C)[C@@H](O)CN(C)CCC[C@H](C/C=C/c4ccnc5ccccc45)OC(=O)C[C@@H](OC(=O)CC)[C@@H]3OC)O[C@@H]2C)C[C@@]1(C)OC(=O)CC | 32 |
| CC[C@H]1OC(=O)[C@H](C)[C@@H](O[C@H]2C[C@@](C)(OC)[C@@H](O)[C@H](C)O2)[C@H](C)[C@@H](O[C@@H]2O[C@H](C)C[C@H](N(C)C)[C@H]2O)[C@](C)(OC)C[C@@H](C)C(=O)[C@H](C)[C@@H](O)[C@]1(C)O | 8 |

----------
System: Haemophilus influenzae
Assay: Antibacterial activity against Haemophilus influenzae 2 after 20 hrs by agar dilution method
Format: functional
Conditions: Haemophilus influenzae, 2, 20 h
MIC by entry:
READOUT KIND: MIC (µg/mL)

| QUERY SMILES | SYSTEM UNDER TEST | UNIT OF MEASURE | OBSERVED RESULT |
| --- | --- | --- | --- |
| CCCNC(=O)O[C@H]1[C@H](C)O[C@@H](O[C@H]2[C@H](N(C)C)[C@@H](O)[C@H](O[C@H]3[C@@H](CC=O)C[C@@H](C)[C@@H](O)CN(C)CCC[C@H](C/C=C/c4cnc5ccccc5c4)OC(=O)C[C@@H](OC(=O)CC)[C@@H]3OC)O[C@@H]2C)C[C@@]1(C)OC(=O)CC | Haemophilus influenzae | µg/mL | 32 |
| CCNC(=O)O[C@H]1[C@H](C)O[C@@H](O[C@H]2[C@H](N(C)C)[C@@H](O)[C@H](O[C@H]3[C@@H](CC=O)C[C@@H](C)[C@@H](O)CN(C)CCC[C@H](C/C=C/c4cnc5ccccc5c4)OC(=O)C[C@@H](OC(=O)CC)[C@@H]3OC)O[C@@H]2C)C[C@@]1(C)OC(=O)CC | Haemophilus influenzae | µg/mL | 16 |

----------
Test system: Haemophilus influenzae
Experiment: Antibacterial activity against Haemophilus influenzae 2 after 20 hrs by agar dilution method
Format: functional
Settings: Haemophilus influenzae, 2, 20 h
Recorded measurements of MIC, one per entry
READOUT KIND: MIC (µg/mL)

| QUERY SMILES | UNIT OF MEASURE | OBSERVED RESULT |
| --- | --- | --- |
| CCNC(=O)O[C@H]1[C@H](C)O[C@@H](O[C@H]2[C@H](N(C)C)[C@@H](O)[C@H](O[C@H]3[C@@H](CC=O)C[C@@H](C)[C@@H](O)CN(C)CCC[C@H](C/C=C/c4cnc(N)c5ccccc45)OC(=O)C[C@@H](O)[C@@H]3OC)O[C@@H]2C)C[C@@]1(C)OC(=O)CC | µg/mL | 4 |
| CCNC(=O)O[C@H]1[C@H](C)O[C@@H](O[C@H]2[C@H](N(C)C)[C@@H](O)[C@H](O[C@H]3[C@@H](CC=O)C[C@@H](C)[C@@H](O)CN(C)CCC[C@H](C/C=C/c4cnc5ccccc5c4)OC(=O)C[C@@H](O)[C@@H]3OC)O[C@@H]2C)C[C@@]1(C)OC(=O)CC | µg/mL | 4 |

All figures here come from ChEMBL document CHEMBL1156987.
